Measured apparent KD of MS2 coat protein of individual entries
Test system: MS2 coat protein
PROTOCOL_DESCRIPTION: apparent KD of MS2 coat protein; designed switch direction (-1 OFF switch, 1 ON switch): 1; higher = weaker reporter binding
RECORDED_CONDITIONS: input ligand: FMN 200 uM

Examples with their reported apparent KD of MS2 coat protein follow.
AACAUGAGGAUCACCCAUGUGAAAUACUGAGGCAGCUCAGGGAAGGAUAUGGUUGACACCCUCGACCAGAAGGUCCAAAAUAAA [Aquorxe] (Eterna round: R96, puzzle: Same State NG 3)	80.8 nM
GCUCCAUUACGAGGAUAUGGGAAAGGAAGUGUACCAGAAGGCGUGAAAAGGUACAUGAGGAUCACCCAUGUACCCGGGAGCAAA [PowerStrip SSNG 1.11] (Eterna round: R96, puzzle: Same State NG 1)	23.1 nM

(Q) Need apparent KD of MS2 coat protein, item GGUACAGUUACAGGAUAUGCUAUCCUUUGGGUAGCAGAAGGGUGGUAACAUGAGGAUCACCCAUGUGUGCCAGGGCGUGAGCCC [JL SSNG1 1.99] (Eterna round: R96, puzzle: Same State NG 1)
(A) 502 nM
